test-target: Tyrosine-protein phosphatase non-receptor type 2 (Homo sapiens)
Sequence (P17706 whole entry): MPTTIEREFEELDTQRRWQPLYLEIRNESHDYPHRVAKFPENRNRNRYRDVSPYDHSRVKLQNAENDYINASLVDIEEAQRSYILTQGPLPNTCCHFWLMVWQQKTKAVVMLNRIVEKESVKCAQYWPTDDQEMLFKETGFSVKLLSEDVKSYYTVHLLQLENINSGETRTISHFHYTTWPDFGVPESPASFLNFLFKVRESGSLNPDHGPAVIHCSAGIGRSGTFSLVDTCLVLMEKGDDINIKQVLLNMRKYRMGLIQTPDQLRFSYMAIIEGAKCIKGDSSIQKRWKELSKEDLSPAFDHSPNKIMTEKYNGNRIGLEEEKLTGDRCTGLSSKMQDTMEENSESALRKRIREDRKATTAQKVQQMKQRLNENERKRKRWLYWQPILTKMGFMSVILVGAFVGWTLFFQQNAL
procedure-details: Inhibition of human TCPTP using p-nitrophenol phosphate as substrate incubated for 35 mins prior to substrate addition measured after 30 mins by spectrophotometry
pIC50: −log10 of the molar value.
Each entry below lists one item and its recorded pIC50 value.

{"compound": "CCOP(=O)(O)C(N[C@@H](C)C(=O)O)c1ccccc1O (some centres undefined)", "pIC50": "< 2.00"}
{"compound": "CCOP(=O)(OCC)[C@H](Nc1ccc(Br)cc1)c1ccccc1O", "pIC50": 4.29}
{"compound": "CCOP(=O)(O)C(NCCCNC(c1ccccc1O)P(=O)(O)OCC)c1ccccc1O (centres undefined)", "pIC50": "< 2.00"}
{"compound": "CCOP(=O)(O)C(N[C@H](C(=O)O)[C@@H](C)O)c1ccccc1O (some centres undefined)", "pIC50": "< 2.00"}
{"compound": "CCOP(=O)(O)C(NCC(=O)O)c1ccccc1O (centres undefined)", "pIC50": "< 2.00"}
{"compound": "CCOP(=O)(O)C(N[C@@H](CS)C(=O)O)c1ccccc1O (some centres undefined)", "pIC50": "< 2.00"}
{"compound": "CCOP(=O)(O)C(N[C@@H](Cc1ccc(O)cc1)C(=O)O)c1ccccc1O (some centres undefined)", "pIC50": "< 2.00"}
{"compound": "O=P(O)(O)[C@H](Nc1ccc(O)cc1)c1ccccc1O", "pIC50": 4.84}
{"compound": "CCOP(=O)(O)C(N[C@@H](Cc1cnc[nH]1)C(=O)O)c1ccccc1O (some centres undefined)", "pIC50": 3.75}

###

test-target: UniProt:P18031
Sequence (P18031 whole entry): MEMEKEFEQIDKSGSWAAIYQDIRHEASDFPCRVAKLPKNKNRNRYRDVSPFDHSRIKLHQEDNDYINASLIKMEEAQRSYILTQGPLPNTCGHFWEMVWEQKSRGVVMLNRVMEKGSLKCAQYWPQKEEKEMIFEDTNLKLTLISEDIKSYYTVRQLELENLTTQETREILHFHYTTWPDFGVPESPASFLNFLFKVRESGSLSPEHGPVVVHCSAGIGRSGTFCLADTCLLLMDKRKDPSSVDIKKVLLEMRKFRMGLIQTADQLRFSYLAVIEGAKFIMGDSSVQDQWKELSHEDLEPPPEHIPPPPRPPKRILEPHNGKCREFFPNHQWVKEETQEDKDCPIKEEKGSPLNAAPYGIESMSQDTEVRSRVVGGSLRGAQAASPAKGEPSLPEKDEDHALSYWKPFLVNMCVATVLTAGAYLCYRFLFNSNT
measured-attribute: IC50

{"compound": "CCOP(=O)(O)C(NCC(=O)O)c1ccccc1O (stereo not given)", "test-value": "> 10000 µM"}
{"compound": "CCOP(=O)(O)C(NCCCCCCNC(c1ccccc1O)P(=O)(O)OCC)c1ccccc1O (stereo not given)", "test-value": "> 10000 µM"}
{"compound": "CCOP(=O)(OCC)[C@H](Nc1ccc(Br)cc1)c1ccccc1O", "test-value": "91.7 µM"}
{"compound": "O=P(O)(O)[C@H](Nc1ccc(O)cc1)c1ccccc1O", "test-value": "6.64 µM"}
{"compound": "CCOP(=O)(O)C(NCCNC(c1ccccc1O)P(=O)(O)OCC)c1ccccc1O (stereo not given)", "test-value": "> 10000 µM"}
